# System: upland rice (Oryza sp., var. Tebonnet, RICE)
# PROTOCOL_NOTES: Post-emerge test, crop safety
# Format: in vivo
# CONDITION_INFO: post-emerge, 63 g ai/ha, 14 days after application, rating scale 0-100
ASSAY_ENDPOINT: phytotoxicity rating RICE (crop damage)
Answer as a number with no unit attached.

Field phytotoxicity rating RICE (crop damage) (entry "COc1c(Cl)cc(F)c(-n2c(=O)cc(C(F)(F)F)n(C)c2=O)c1NC(=O)OCc1ccccn1" ) reads 60

Field phytotoxicity rating RICE (crop damage) (entry "COc1c(Cl)cc(F)c(-n2c(=O)cc(C(F)(F)F)n(C)c2=O)c1NC(=O)OCc1ccc(Cl)c(Cl)c1" ) reads 20

Field phytotoxicity rating RICE (crop damage) (entry "Cn1c(C(F)(F)F)cc(=O)n(-c2ccc(Cl)cc2NC(=O)OCc2ccccc2F)c1=O" ) reads 10

Field phytotoxicity rating RICE (crop damage) (entry "Cc1cccc(C)c1OC(=O)Nc1c(C)c(Cl)cc(F)c1-n1c(=O)cc(C(F)(F)F)n(C)c1=O" ) reads 0

Field phytotoxicity rating RICE (crop damage) (entry CCOC(=O)C(C)Oc1c(Cl)cc(F)c(-n2c(=O)cc(C(F)(F)F)n(C)c2=O)c1NC(=O)c1ccc2ccccc2c1 (centres unmarked) ) reads 10

Field phytotoxicity rating RICE (crop damage) (entry "CCCCCC(=O)Nc1c(OC)c(Cl)cc(F)c1-n1c(=O)cc(C(F)(F)F)n(C)c1=O" ) reads 10

Field phytotoxicity rating RICE (crop damage) (entry "CC(C)Oc1c(Cl)cc(F)c(-n2c(=O)cc(C(F)(F)F)n(C)c2=O)c1NC(=O)c1ccc2ccccc2c1" ) reads 20

Field phytotoxicity rating RICE (crop damage) (entry "COc1c(Cl)cc(F)c(-n2c(=O)cc(C(F)(F)F)n(C)c2=O)c1NC(=O)OCc1c(F)cccc1F" ) reads 60

Hello, the source for this data is patent US6355799B1, in case you need it.
